system: T47D; assay: NCI tumour cell line growth inhibition, 48 h
Calls of active or inactive are those of the source. Rule as the data show it: active = GI50 up to about 1.1 µM and inactive = higher.
quantity_name: GI50

Ask: # GI50 lookup, item CCOC(=O)C1=C(C)NC(=O)N([N+](=O)[O-])C1c1ccccc1C(F)(F)F (stereo not given)
Result: 35.4 µM (inactive)

Ask: # GI50 lookup, item O=C(O)C1C2C=CC(O2)C1C(=O)NCc1cccnc1 (stereo not given)
Result: > 100 µM (inactive)

Ask: # GI50 lookup, item CC1(C)OCC(CO)(CO)CO1
Result: > 100 µM (inactive)

Ask: # GI50 lookup, item CN(C)CCNC(=O)c1cccc2nc3c(C(=O)NCCN(C)C)cccc3nc12
Result: 4.34 µM (inactive)

Ask: # GI50 lookup, item COc1nc2sc3c(c2c(=O)n1CCCSSCCCn1c(OC)nc2sc4c(c2c1=O)CCCC4)CCCC3
Result: > 100 µM (inactive)

Ask: # GI50 lookup, item CC(=O)c1c2c(cc3c1CC1(C3)Cc3ccc4c(c3C1=O)CCC4)CCC2 (stereo not given)
Result: 9.73 µM (inactive)

Ask: # GI50 lookup, item O=c1oc2c/c(=C\c3ccccn3)c(=O)c3cccc1c3-2
Result: 38.1 µM (inactive)

Ask: # GI50 lookup, item CN(C)CCCNc1ccnc2cc([N+](=O)[O-])ccc12
Result: 5.98 µM (inactive)

Ask: # GI50 lookup, item CCCCCCCCCCOCCOCCOCCOCCCCC(O)CCCCCCCC1=C[C@H](C)OC1=O (stereo not given in full)
Result: 8.39 µM (inactive)

Ask: # GI50 lookup, item COc1ccc(NC(=O)CC(=O)N2N=C(C)C(/N=N\c3ccc(S(=O)(=O)c4ccc(/N=N/C5C(=O)N(C(=O)CC(=O)Nc6ccc(OC)cc6)N=C5C)cc4)cc3)C2=O)cc1 (stereo not given)
Result: > 100 µM (inactive)
